Test: chemical genetic growth profiling, strain panel (AID 1159580);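 further: tested at 20 µM; growth read once vehicle control cultures reached saturation at 30 °C; lower values mean less growth of the strain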
Settings: S. cerevisiae deletion strains, growth OD, locus YLL001W, strain dnm1
In all, about 5,500 compounds went through this assay and about 2,000 (36%) were called active. Not shown: some 18% with an inconclusive outcome. No stated cut-off is given here; in the data, active means normalized growth mostly below about 0.91 (no sharp cut-off); inconclusive means no clear call, values can overlap the other calls; inactive means mostly above about 0.92. Some of the results follow.
Form entry, call: pick from T = active, F = inactive

Example cases with answers are listed next.
compound="C1CCN2CC3CC(CN4CCCCC34)C2C1 (configuration not stated)" class_name=F
compound=C=C(CC)C(=O)c1ccc(OCC(=O)O)c(Cl)c1Cl class_name=F
compound=CS(=O)(=O)CCCCN=C=S class_name=T
compound="C[C@H]1[C@H]2CCC3C4CC=C5C[C@@H](N(C)C)CC[C@]5(C)C4CC[C@@]32CN1C (some centres not stated)" class_name=F
compound=C1CCN2C[C@@H]3C[C@H](CN4CCCC[C@@H]34)[C@H]2C1 class_name=F
compound="O=C1CCCC2C3CC(CN12)[C@@H]1CCCCN1C3 (some centres not stated)" class_name=F

Shifting focus to the compound that follows.
// return assay outcome for "Cc1ccc(/C(=C\CN2CCCC2)c2ccccn2)cc1"
F
